# credit: PubChem BioAssay (NCATS)

assay: qHTS of pediatric cancer cell lines to identify multiple opportunities for drug repurposing: Primary screen for OHS-50 cells (AID 1347103); settings: OHS-50 osteosarcoma viability, CellTiter-Glo luminescence, 48 h; series mostly up to 57.3 µM; also: nearly all actives have a fitted effect of over 40% in size
Results filed as inconclusive are left out. The source made the active and inactive calls. Calls follow the shape of the dose curve; as a rule, active = well fitted cell-killing curve with a large enough effect; inconclusive = small, poorly fitted or top-dose-only effect; inactive = no such curve, though single readings can be large or run the other way.
The reply should name one outcome from active, inactive

# outcome recorded in this test, key = CCOC(=O)C1=C(C)NC2=C(C(=O)CC(C)(C)C2)C1c1ccc(-c2ccccc2)cc1 (centres undefined)
active

# outcome recorded in this test, key = CNC(=O)c1c(F)cccc1Nc1nc(Nc2cc3c(cc2OC)CCN3C(=O)CN(C)C)nc2[nH]ccc12
active

# outcome recorded in this test, key = Cc1ccc(NC(=O)C2(c3ccc4c(c3)OC(F)(F)O4)CC2)nc1-c1cccc(C(=O)O)c1
active

# outcome recorded in this test, key = CC(C)(C)NC(=O)[C@H]1CN(Cc2cccnc2)CCN1C[C@@H](O)C[C@@H](Cc1ccccc1)C(=O)N[C@H]1c2ccccc2C[C@H]1O
active

# outcome recorded in this test, key = O=C(C=Cc1cccc(S(=O)(=O)Nc2ccccc2)c1)NO
active

# outcome recorded in this test, key = CCCCc1nc2cc(C=CC(=O)NO)ccc2n1CCN(CC)CC
active

# outcome recorded in this test, key = Cc1cccc(C=NNc2cc(N3CCOCC3)nc(OCCc3ccccn3)n2)c1
active

# outcome recorded in this test, key = CC(O)C1C(=O)N2C(C(=O)O)=C(SC3CNC(C(=O)N(C)C)C3)C(C)C12 (centres undefined)
inactive

# outcome recorded in this test, key = Cc1cc(CN2CCN(c3c(Br)cnc4nc(-c5ccc(N6CCN(C)CC6)cc5)[nH]c34)CC2)no1
active

====

assay: qHTS of pediatric cancer cell lines to identify multiple opportunities for drug repurposing: Primary screen for SK-N-SH cells (AID 1347098); conditions: SK-N-SH viability, CellTiter-Glo luminescence, 48 h; series mostly up to 57 µM; also: nearly all actives have a fitted effect of over 65% in size
Results filed as inconclusive are left out. Calls of active or inactive are those of the source. Calls follow the shape of the dose curve; as a rule, active = well fitted cell-killing curve with a large enough effect; inconclusive = small, poorly fitted or top-dose-only effect; inactive = no such curve, though single readings can be large or run the other way.
The reply should name one outcome from true (1) (active), false (0) (inactive)

# outcome recorded in this test, key = CNC(=O)c1cc(Oc2ccc(NC(=O)Nc3cc(C(C)(C)C)nn3-c3ccc4ncccc4c3)c(F)c2)ccn1
true (1)

# outcome recorded in this test, key = CC[C@@]1(O)C(=O)OCc2c1cc1n(c2=O)Cc2cc3cc(O)ccc3nc2-1
true (1)

# outcome recorded in this test, key = O=C(Nc1cn[nH]c1-c1nc2ccc(CN3CCOCC3)cc2[nH]1)NC1CC1
true (1)

# outcome recorded in this test, key = Nc1ncnc2c1c(-c1cccc(OCc3ccccc3)c1)cn2C1CC(CN2CCCC2)C1 (stereo unspecified)
true (1)

# outcome recorded in this test, key = COCCOc1ccc2c(c1)ncn2-c1ccc2cccc(N3CCC(N)CC3)c2n1
true (1)

# outcome recorded in this test, key = CC(C)c1cc(-c2n[nH]c(=O)n2-c2ccc3c(ccn3C)c2)c(O)cc1O
true (1)

# outcome recorded in this test, key = CC(=O)Nc1nc(C)c(-c2ccc(Cl)c(S(=O)(=O)NCCO)c2)s1
true (1)

# outcome recorded in this test, key = C[C@H]1C[C@@H]2[C@@H]([C@@H](O)C[C@@]3(C)[C@H]2CC[C@]3(O)C(=O)CO)[C@@]2(C)C=CC(=O)C=C12
false (0)

# outcome recorded in this test, key = Cc1cc(Nc2nc(N[C@@H](C)c3ccc(F)cc3)c(C#N)cc2F)n[nH]1
true (1)

# outcome recorded in this test, key = C=CCn1c(=O)c2cnc(Nc3ccc(N4CCN(C)CC4)cc3)nc2n1-c1cccc(C(C)(C)O)n1
true (1)

# outcome recorded in this test, key = CCCCCN(CCC12CC3CC(CC(C3)C1)C2)C(=O)NCCCc1ccncc1
false (0)

# outcome recorded in this test, key = Cc1cccc(C=NNc2cc(N3CCOCC3)nc(OCCc3ccccn3)n2)c1
true (1)

# outcome recorded in this test, key = CC(C)(C)OC(=O)Nc1ccc(-c2cc(C(=O)NCCCCCCC(=O)NO)no2)cc1
true (1)

# outcome recorded in this test, key = CCCCc1nc2cc(C=CC(=O)NO)ccc2n1CCN(CC)CC
true (1)

# outcome recorded in this test, key = CN(C)Cc1c(C(=O)NCCOc2ccc(C(=O)NO)cc2)oc2ccccc12
true (1)

# outcome recorded in this test, key = CC[C@H]1CN2CCc3cc(OC)c(OC)cc3[C@H]2C[C@@H]1C[C@@H]1NCCc2cc(OC)c(OC)cc21
true (1)

# outcome recorded in this test, key = O=C1CCC[C@@H]2[C@H]3CCC[N+]4([O-])CCC[C@@H](CN12)[C@@H]34 (stereo partly specified)
false (0)

# outcome recorded in this test, key = COc1cc(Nc2ncc(F)c(Nc3ccc4c(n3)N(COP(=O)(O)O)C(=O)C(C)(C)O4)n2)cc(OC)c1OC
true (1)

# outcome recorded in this test, key = COc1cc2c(Oc3ccc(-c4cnc(Nc5ccc(F)cc5)n(C)c4=O)cc3F)ccnc2cc1OCCCN1CCOCC1
true (1)

# outcome recorded in this test, key = CC(C)C[C@H](NC(=O)CNC(=O)c1cc(Cl)ccc1Cl)B(O)O
true (1)

# outcome recorded in this test, key = COc1cc(C)c(Sc2cnc(NC(=O)c3ccc(CNC(C)C(C)C)cc3)s2)cc1C(=O)N1CCN(C(C)=O)CC1 (stereo unspecified)
true (1)

# outcome recorded in this test, key = O=C(c1cncc(Br)c1)N1CCC(N2CCCC2)CC1
false (0)

# outcome recorded in this test, key = CNC(=O)CN1CCC(Oc2cc3c(Nc4cccc(Cl)c4F)ncnc3cc2OC)CC1
true (1)

# outcome recorded in this test, key = O=C(NCCCNc1nc(Nc2cccc(NC(=O)N3CCCC3)c2)ncc1I)c1cccs1
true (1)

# outcome recorded in this test, key = c1cc(-c2cnn3cc(-c4ccc(OCCN5CCCCC5)cc4)cnc23)ccn1
true (1)

# outcome recorded in this test, key = CC(=O)c1c(C)c2cnc(Nc3ccc(N4CCNCC4)cn3)nc2n(C2CCCC2)c1=O
true (1)

# outcome recorded in this test, key = Cn1cncc1[C@@](N)(c1ccc(Cl)cc1)c1ccc2c(c1)c(-c1cccc(Cl)c1)cc(=O)n2C
true (1)

# outcome recorded in this test, key = Cn1c2ccccc2c2c3c(c4c5ccccc5n(CCC#N)c4c21)CNC3=O
true (1)

# outcome recorded in this test, key = CCOc1ccccc1OCCNC(C)Cc1ccc(OC)c(S(N)(=O)=O)c1 (stereo unspecified)
false (0)

# outcome recorded in this test, key = Cc1[nH]nc2ccc(-c3cncc(OC[C@@H](N)Cc4ccccc4)c3)cc12
true (1)

# outcome recorded in this test, key = Nc1nc(Nc2ccc(S(N)(=O)=O)cc2)nn1C(=O)c1c(F)cccc1F
true (1)

# outcome recorded in this test, key = Clc1cccc(-c2nnnn2Cc2cccnc2)c1Cl
false (0)

# outcome recorded in this test, key = Cn1cc(-c2[nH]c3cc(NC(=O)[C@H](N)C4CCCCC4)cc4c3c2C=NNC4=O)cn1
true (1)

# outcome recorded in this test, key = CCCCCCCCCC(=O)N[C@@H](Cc1c[nH]c2ccccc12)C(=O)N[C@H](CC(N)=O)C(=O)N[C@@H](CC(=O)O)C(=O)N[C@@H]1C(=O)NCC(=O)N[C@@H](CCCN)C(=O)N[C@@H](CC(=O)O)C(=O)N[C@H](C)C(=O)N[C@@H](CC(=O)O)C(=O)NCC(=O)N[C@H](CO)C(=O)N[C@@H]([C@@H](C)CC(=O)O)C(=O)N[C@@H](CC(=O)c2ccccc2N)C(=O)O[C@@H]1C
false (0)

# outcome recorded in this test, key = Cc1ccc(S(=O)(=O)Nc2cc(Cl)ccc2C(=O)Nc2nc(-c3ccccc3)cs2)cc1
false (0)

# outcome recorded in this test, key = COc1ccc2c(OCc3nnc4ccc(-c5ccccc5)nn34)ccnc2c1
false (0)

====

test: qHTS of pediatric cancer cell lines to identify multiple opportunities for drug repurposing: Confirmatory screen for Saos-2 cells (AID 1347127); conditions: Saos-2 osteosarcoma cell viability; series mostly up to 45.9 µM; also: nearly all actives have a fitted effect of over 60% in size; also: potency is read from the fitted curve at half-maximal effect
Records with an inconclusive call do not appear. Active and inactive are the calls of the source. Calls follow the shape of the dose curve; as a rule, active = well fitted cell-killing curve with a large enough effect; inconclusive = small, poorly fitted or top-dose-only effect, or effect the other way; inactive = no such curve, though single readings can be large or run the other way.
metric: Potency

>  <smiles_data>
CN(C)Cc1c(C(=O)NCCOc2ccc(C(=O)NO)cc2)oc2ccccc12

>  <metric>
Potency

>  <observed_measurement>
1470 nM (active)

$$$$
>  <smiles_data>
Cc1ccc(NC(=O)C2(c3ccc4c(c3)OC(F)(F)O4)CC2)nc1-c1cccc(C(=O)O)c1

>  <metric>
Potency

>  <observed_measurement>
inactive

$$$$
>  <smiles_data>
C=CCn1c(=O)c2cnc(Nc3ccc(N4CCN(C)CC4)cc3)nc2n1-c1cccc(C(C)(C)O)n1

>  <metric>
Potency

>  <observed_measurement>
1310 nM (active)

$$$$
>  <smiles_data>
CCS(=O)(=O)c1cccc(-c2cc(C(=O)NC3CCN(C)CC3)c(C)c3[nH]c4ncc(C)cc4c23)c1

>  <metric>
Potency

>  <observed_measurement>
1040 nM (active)

$$$$

Value lookup for Potency; key = Cc1c(C)n(Cc2ccc(-c3ccccc3C(=O)O)cc2)c2ccc(C(=O)N[C@@H](C)c3ccc([N+](=O)[O-])cc3)cc12
inactive

Value lookup for Potency; key = COc1c(OCCCN2CCOCC2)ccc2c3n(c(=NC(=O)c4cnc(N)nc4)nc12)CCN3
644 nM (active)
